Test system: 786-0
assay protocol: Growth inhibition of human 786-0 cells at 10 uM after 48 hrs by sulforhodamine B assay
Format: functional
condition info: 786-0, 48 h, read-out: GI
# binarize inhibition of growth at 10 µM: threshold 3% inclusive, high side True, low side False

Sample answers from the record:
INSERT INTO assay_data (molecule_smiles, category_label) VALUES
  ('NS(=O)(=O)c1cnccc1N1CCN(Cc2ccccc2)CC1', 'True'),
  ('NS(=O)(=O)c1cnccc1N1CCN(c2ncccn2)CC1', 'False'),
  ('CCc1cc(CC)n(-c2ccncc2S(N)(=O)=O)n1', 'False'),
  ('NS(=O)(=O)c1cnccc1N1CCN(c2ccc(Cl)c(Cl)c2)CC1', 'True');

In the following, a different compound is considered.
Incoming: Is it the case that NS(=O)(=O)c1cnccc1N1CCN(c2ccccn2)CC1 has inhibition of growth at 10 µM reaching or exceeding 3%?
Outgoing: False
